Test system: M. smegmatis mc^2155
conditions_used: mc^2155, 3 h
No end group written: not given here.
parameter: EC50

RGRRSSRRKK-NH2 [hBD3-Pep4]: 0.287 µM

Request: Which EC50 reading was recorded for the substance GLLRKGGEKIGEKLKKIGQKIKNFFQKLVPQPEQ [mCRAMP] ?
Result: 0.044 µM
